system: Plasmodium falciparum; test: Antimalarial activity against Plasmodium falciparum; type: functional, organism-based; conditions: Plasmodium falciparum
pIC50: −log10 of the molar value.
Respond with t for pIC50 values of 6 and above, f for values below.

As a guide, the following entries are already answered.
C[C@@H]1CO[C@](CCc2ccc(Cl)cc2)(Cn2ccnc2)O1.Cl : f
C[C@H]1CO[C@@](CCc2ccc(Cl)cc2)(Cn2ccnc2)O1.Cl : f
C[C@@H]1CO[C@@](CCc2ccccc2)(Cn2ccnc2)O1.Cl : t
Cl.Cl.Nc1ccccc1SC[C@@H]1CO[C@@](CCc2ccc(Cl)cc2)(Cn2ccnc2)O1 : f
Cl.Clc1ccc(CCC2(Cn3ccnc3)OCCO2)cc1 : f

[in] Is pIC50 at least 6? Consider `Cl.Cl.Nc1ccc(SC[C@H]2CO[C@@](CCc3ccc(Cl)cc3)(Cn3ccnc3)O2)cc1`
[out] f

[in] Is pIC50 at least 6? Consider `Cl.O=C(CCc1ccc(Cl)cc1)Cn1ccnc1`
[out] f

[in] Is pIC50 at least 6? Consider `Cl.Cl.Nc1ccccc1SC[C@@H]1CO[C@](CCc2ccc(Cl)cc2)(Cn2ccnc2)O1`
[out] t

[in] Is pIC50 at least 6? Consider `Cl.Cl.Nc1ccccc1SC[C@H]1CO[C@@](CCc2ccc(Cl)cc2)(Cn2ccnc2)O1`
[out] f

[in] Is pIC50 at least 6? Consider `C[C@H]1CO[C@](CCc2ccc(Cl)cc2)(Cn2ccnc2)O1.Cl`
[out] f

Measured values drawn from ChEMBL document CHEMBL1147003 for this set.
